- STUDY TARGET: Amine oxidase [flavin-containing] B (Homo sapiens)
- Sequence (P27338 whole entry): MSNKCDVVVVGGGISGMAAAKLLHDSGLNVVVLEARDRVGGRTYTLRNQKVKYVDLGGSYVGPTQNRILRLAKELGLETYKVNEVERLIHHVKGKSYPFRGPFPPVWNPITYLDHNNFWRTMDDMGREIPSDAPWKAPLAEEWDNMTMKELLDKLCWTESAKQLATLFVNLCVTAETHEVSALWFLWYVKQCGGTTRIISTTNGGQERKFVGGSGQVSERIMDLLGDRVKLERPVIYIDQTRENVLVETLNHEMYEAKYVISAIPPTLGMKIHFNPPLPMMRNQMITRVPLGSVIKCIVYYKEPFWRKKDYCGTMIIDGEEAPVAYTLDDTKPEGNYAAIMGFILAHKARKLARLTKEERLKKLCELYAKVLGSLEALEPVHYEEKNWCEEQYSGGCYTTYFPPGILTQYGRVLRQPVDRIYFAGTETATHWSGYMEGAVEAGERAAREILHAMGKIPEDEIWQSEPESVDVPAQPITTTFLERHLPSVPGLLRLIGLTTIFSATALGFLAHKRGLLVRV
- PROTOCOL SUMMARY: Inhibition of human recombinant MAOB by amplex red assay
pIC50: −log10 of the molar value.
MEASUREMENT NAME: pIC50

Illustrative cases are given below, each with its answer.
CCCN1C(=O)/C(=C\c2ccncc2)SC1=S = 6.10
CN1C(=O)/C(=C\c2ccccc2)SC1=S = 4.98
O=C1NC(=O)/C(=C\c2cc(Br)c(O)c(Br)c2)S1 = 5.99
Cc1cc(CC2SC(=O)NC2=O)cc(C)c1O (stereo not given) = 4.79
O=C(/C=C1/SC(=O)NC1=O)Nc1cccc(O)c1 = 4.96
CC(C)(C)c1cc(CC2SC(=O)N=C2O)cc(C(C)(C)C)c1O (stereo not given) = 5.62

(A) O=C(O)C(Cc1ccc(O)cc1)N1C(=O)CSC1=S (stereo not given)
(B) O=C(O)CCN1C(=O)/C(=C\c2ccccc2)SC1=S
When A and B are compared, which has the higher number for pIC50? Write down the label of the entry you select. A
(A: 3.56, B: 3.22)

(I) O=C1NC(=O)/C(=N\c2ccc(C(=O)O)cc2)S1
(II) COc1cc(/C=C2\SC(=S)NC2=O)ccc1O
Form: Entry with minimum pIC50 (choose one): I / II Write down the label of the entry you select. I
